B1: Homeobox protein cut-like 1, residues 548 to 629; numbered along this chain, P39880 (parent)
chain: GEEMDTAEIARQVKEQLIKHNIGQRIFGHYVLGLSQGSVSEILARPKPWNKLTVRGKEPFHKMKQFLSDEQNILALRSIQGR

- Variants of: B1
- assay notes: abundance fitness (aPCA) (normalised: wild type 0, dead -1); higher = more abundant; growth selection in yeast, the domain comes from the species named
- reported conditions: Homo sapiens

mutation label	abundance fitness
L32A	-0.732
P59F	0.052
N72C	-0.098
A75D	0.109
G23A	-0.004
I18N	0.012
S78M	-0.009
N72Q	0.03
L32Y	-1.01
L67M	-0.284
I42R	-1
N21F	-0.534
R11Y	-0.249
R11G	-0.18
R77L	-0.073
G1D	0.029
A44C	-0.134
Y30Q	-0.099
I22V	-0.071
G23V	-0.196
K14A	-0.324
T6E	-0.921
L52Q	-0.825
S40K	0.032
N72Y	-0.099
Q36V	-0.025
S40C	-0.063
I79V	0.015
L17A	-0.724
A44D	0.056
V13D	-0.486
L67C	-0.498
E70L	-0.307
G33T	-0.798
I22P	-0.718
K47M	-0.06
G81Q	0.095
Q65L	-0.082
E3N	-0.119
P59H	0.025
N21G	0.025
N21I	-1.06
H29Y	-0.125
S38F	-0.181
F27E	-0.906
T6C	-0.66
